Target: DPIV (Homo sapiens)
Sequence (P27487 whole entry): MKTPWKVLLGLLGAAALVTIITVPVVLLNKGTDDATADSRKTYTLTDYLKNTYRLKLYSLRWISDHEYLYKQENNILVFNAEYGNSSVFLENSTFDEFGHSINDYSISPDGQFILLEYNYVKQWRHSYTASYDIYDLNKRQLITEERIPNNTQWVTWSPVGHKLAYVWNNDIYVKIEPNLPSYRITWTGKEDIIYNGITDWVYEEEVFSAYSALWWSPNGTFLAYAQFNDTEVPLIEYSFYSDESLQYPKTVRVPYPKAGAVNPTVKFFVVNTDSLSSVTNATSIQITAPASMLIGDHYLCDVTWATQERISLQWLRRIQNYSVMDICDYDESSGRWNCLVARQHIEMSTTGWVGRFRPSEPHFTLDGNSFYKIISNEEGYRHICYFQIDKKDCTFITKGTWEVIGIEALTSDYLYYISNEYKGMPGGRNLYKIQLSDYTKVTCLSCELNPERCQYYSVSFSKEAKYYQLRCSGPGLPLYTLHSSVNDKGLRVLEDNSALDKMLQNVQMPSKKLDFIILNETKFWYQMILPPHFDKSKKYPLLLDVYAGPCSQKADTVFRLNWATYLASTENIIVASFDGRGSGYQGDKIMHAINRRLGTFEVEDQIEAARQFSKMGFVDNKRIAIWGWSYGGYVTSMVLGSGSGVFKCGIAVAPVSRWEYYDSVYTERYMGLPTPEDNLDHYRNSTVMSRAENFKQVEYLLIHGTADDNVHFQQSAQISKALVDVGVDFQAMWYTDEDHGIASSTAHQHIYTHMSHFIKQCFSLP
Test: DPIV inhibition assay (L-alanyl-L-proline-para-nitroanilide substrate, absorbance at 410 nm)
Conditions: IC50, DPIV; pH 8
experimental endpoint: IC50 (nM)
Write down the numeric answer in nM and omit the unit.

Return IC50 (reported value) for this molecule: CC[C@H](NC(=O)[C@@H](N)CCC(=O)O)B(O)O [Glu-boroEtg] 49

# credit: patent US20140018545A1
